assayText: Toxicity liver stage against HepG2, at 10uM
Assay type: cell-based
Set-up: test concentration 10 uM, cell line HepG2-A16-CD81EGFP
testParameters: human, HepG2-A16-CD81EGFP cells; read-out: INHIBITION
propertyLabel: cytotoxicity at 10 µM (%)
Return type: number; implicit unit %.

Here are 5 compounds together with their reported answers.
1. Cc1cccnc1NC(=O)C1CCN(C(=O)C(C)C)CC1: 6.7
2. Cc1nc(-c2c(C)noc2C)cc(C2CCN(S(=O)(=O)N(C)C)CC2)n1: 4.62
3. Cc1cccc(Cn2nc(C3CCNCC3)n(-c3ccccc3)c2=O)c1: -4.68
4. COc1ccc(-n2nc(C)c(C(C)=O)c2C)cc1CO: 11.2
5. CCc1ccc(C(=O)NC2CCc3nc(C)cn3C2)o1 (configuration not stated): -8.45

Given the entry COCc1ccccc1C(=O)N1CCCC(c2cc(C)[nH]n2)C1 (configuration not stated) , report its measured cytotoxicity at 10 µM.
-23.2

Given the entry `Cc1ccccc1NC(=O)NCCn1nc(C(F)(F)F)n(C)c1=O` , report its measured cytotoxicity at 10 µM.
-1.68

Given the entry `Cc1cnc(CCNC(=O)C2CN(C(=O)Cc3ccc(F)cc3)C2)s1` , report its measured cytotoxicity at 10 µM.
0.82

====

assayText: Toxicity liver stage against HepG2, at 10uM
Assay type: cell-based
Set-up: test concentration 10 uM, cell line HepG2-A16-CD81EGFP
testParameters: human, HepG2-A16-CD81EGFP cells; read-out: INHIBITION
propertyLabel: cytotoxicity at 10 µM (%)
Return type: number; implicit unit %.

Here are 4 compounds together with their reported answers.
1) CC(C)c1cc(NC(=O)CN2CCc3cncnc3C2)on1: -8.83
2) CCOC(=O)c1cnn(C2CCN(C(=O)CC3C=CCC3)CC2)c1N (configuration not stated): 7.87
3) CC(NCc1cnc(N2CCN(C)CC2)nc1)c1ccc(F)cc1 (configuration not stated): -5.26
4) CC(C)(C)c1n[nH]c(C2CN(C(=O)c3cc(Cl)c[nH]3)CCO2)n1 (configuration not stated): -10.6

Given the entry COc1cccc(CC(C)NCC(=O)Nc2ccccc2C)c1 (configuration not stated) , report its measured cytotoxicity at 10 µM.
-1.62

Given the entry `CN(C)Cc1cc(=O)n2c(n1)CN(CC1CCOCC1)CCC2` , report its measured cytotoxicity at 10 µM.
6.37

Given the entry `Cc1ccc(C(=O)NS(C)(=O)=O)cc1-n1cccc1` , report its measured cytotoxicity at 10 µM.
-3.47

====

assayText: Toxicity liver stage against HepG2, at 10uM
Assay type: cell-based
Set-up: test concentration 10 uM, cell line HepG2-A16-CD81EGFP
testParameters: human, HepG2-A16-CD81EGFP cells; read-out: INHIBITION
propertyLabel: cytotoxicity at 10 µM (%)
Return type: number; implicit unit %.

1) CC(C)Cc1noc(CN(C)c2cc(C(C)C)nc3ccnn23)n1: -7.55
2) COc1ccc(CCNC(=O)N2CCCC(c3nncn3C)C2)cc1 (stereo not drawn): -3.92
3) CC(=O)NCc1noc2c1CN(Cc1cccs1)CC2: -5.18
4) CCOCC(O)CN1CCN(C(=O)Cc2ccccc2C)CC1 (stereo not drawn): -3.43
5) c1ncn(Cc2cn3c(n2)CN(CC2CCCC2)CC3)n1: -127

Given the entry `COc1ccc(C(=O)N2CCC3(CCC(=O)N(C(C)C)C3)CC2)cc1C` , report its measured cytotoxicity at 10 µM.
-3.47

Given the entry `CN(C)CCN1CCO[C@@H]2CN(C(=O)Cc3ccsc3)CC[C@@H]2C1` , report its measured cytotoxicity at 10 µM.
-119

Given the entry `Cc1ccc(CN2CCN(c3ccc(F)cn3)CC2=O)cc1C` , report its measured cytotoxicity at 10 µM.
-4.4

Given the entry `Cc1nc(COc2nc(C(C)C)no2)cs1` , report its measured cytotoxicity at 10 µM.
11.5

Given the entry CC1=Nc2c(c(O)nn2C(C)C)C(c2cccnc2)S1 (stereo not drawn) , report its measured cytotoxicity at 10 µM.
2.93

Given the entry `Cn1ccc(CN2CCCN(c3nccs3)CC2)cc1=O` , report its measured cytotoxicity at 10 µM.
0.0833

Given the entry O=C(c1c[nH]cn1)N1CCOCC2(C1)CN(c1ccccc1)C(=O)CO2 (stereo not drawn) , report its measured cytotoxicity at 10 µM.
-7.27

Given the entry `O=C(Nc1cccc(F)c1)N1CCC(CO)(Nc2ccccc2)CC1` , report its measured cytotoxicity at 10 µM.
-5.04

Given the entry `CCOC(=O)[C@]12CCCN(Cc3nccs3)C[C@H]1CN(CCOC)C2` , report its measured cytotoxicity at 10 µM.
1.36

Given the entry CCC(C(=O)NC1(COC)CCCC1)n1cccn1 (stereo not drawn) , report its measured cytotoxicity at 10 µM.
-3.41

Given the entry `CC(C)n1cnnc1CNC(=O)CCCOc1ccccc1Cl` , report its measured cytotoxicity at 10 µM.
-3.51

Given the entry `O=C1N(CC2CC2)C2(CCSCC2)NC12CCCC2` , report its measured cytotoxicity at 10 µM.
-150

Given the entry `Cc1ccc(CN(C)C(=O)c2n[nH]c(N)c2-c2ccccc2)o1` , report its measured cytotoxicity at 10 µM.
-4.81

====

assayText: Toxicity liver stage against HepG2, at 10uM
Format: cell-based
Set-up: test concentration 10 uM, cell line HepG2-A16-CD81EGFP
testParameters: human, HepG2-A16-CD81EGFP cells; read-out: INHIBITION
Reported cytotoxicity at 10 µM by item:
Return type: number; implicit unit %.

1. N#Cc1cccc(C(=O)N2CCC3(CCC(=O)N(C4CC4)C3)CC2)c1: 0.194
2. CCC(C)N(Cc1ccncc1)C(=O)CCSC (configuration not stated): -0.146
3. Cc1ccsc1CN1CCc2c(nc(N3CCCCC3C)[nH]c2=O)C1 (configuration not stated): -3.42
4. Cn1c(=O)n(C)c2nc(Cl)c(CC(=O)c3ccc(F)cc3)n2c1=O: 6.28
5. OCC1N(Cc2ccc(F)cc2)C2CCC1(O)CC2 (configuration not stated): 8.05

Given the entry `CCCc1nnc(N2CCC(N3CCN(CCO)CC3)CC2)o1` , report its measured cytotoxicity at 10 µM.
-4.95

Given the entry `CNC(=O)[C@H]1C[C@@H]2CN(C(=O)c3ccncc3F)C[C@@H]2N1C` , report its measured cytotoxicity at 10 µM.
-111

====

assayText: Toxicity liver stage against HepG2, at 10uM
Type: cell-based
Set-up: test concentration 10 uM, cell line HepG2-A16-CD81EGFP
testParameters: human, HepG2-A16-CD81EGFP cells; read-out: INHIBITION
Reported cytotoxicity at 10 µM by item:
Return type: number; implicit unit %.

1) CC(C)CN1CCNC(=O)C12CCN(C(=O)c1ccccn1)CC2: 5.25
2) COc1c(Br)c(CC2CC(CO)=NO2)c(OC)c2c1OCO2 (centres undefined): 6.36

Given the entry `O=C(NCCC1=CCCCC1)c1cc(-c2ccc(O)cc2)n[nH]1` , report its measured cytotoxicity at 10 µM.
38.8

Given the entry `CC(C)c1cc(C(=O)N2CCC3(CC2)c2ccccc2[C@@H](N)[C@@H]3O)cs1` , report its measured cytotoxicity at 10 µM.
-7.34

Given the entry `CCn1cnnc1CN(C)C(=O)c1cc(COc2cccc(F)c2)[nH]n1` , report its measured cytotoxicity at 10 µM.
12.3

====

assayText: Toxicity liver stage against HepG2, at 10uM
Assay type: cell-based
Design: test concentration 10 uM, cell line HepG2-A16-CD81EGFP
testParameters: human, HepG2-A16-CD81EGFP cells; read-out: INHIBITION
propertyLabel: cytotoxicity at 10 µM (%)
Return type: number; implicit unit %.

Here are 2 compounds together with their reported answers.
1) CN1CCCN(c2nccc(-c3cncnc3C3CCCCC3)n2)CC1: -6.25
2) CCN(CC)c1ccc2ccc(C(=O)N3CCCCO3)cn12: 5.33

Given the entry CCn1cc(CNC2CCN(c3c(F)cccc3F)C2)cn1 (stereo not drawn) , report its measured cytotoxicity at 10 µM.
-2.93

====

assayText: Toxicity liver stage against HepG2, at 10uM
Format: cell-based
Parameters: test concentration 10 uM, cell line HepG2-A16-CD81EGFP
testParameters: human, HepG2-A16-CD81EGFP cells; read-out: INHIBITION
propertyLabel: cytotoxicity at 10 µM (%)
Return type: number; implicit unit %.

Here are 3 compounds together with their reported answers.
1) c1ccc(-c2nnc3ccc(N4CCC5(CCOC5)C4)nn23)cc1 (centres undefined): 7.12
2) CN(Cc1nnnn1C1CC1)CC1COc2ccccc2O1 (centres undefined): -5.79
3) Cc1sc2nc(CCN)nc(N(CCN(C)C)CC3CCCO3)c2c1C (centres undefined): -9.54

Here's the next entry for you.
Given the entry `Cc1ccc(F)c(S(=O)(=O)Nc2cn(C)cc(Br)c2=O)c1` , report its measured cytotoxicity at 10 µM.
-7.73
